system: S. aureus; experiment: Growth inhibition assay of Staphylococcus species (OD600, 20 h); details: Staphylococcus aureus, read-out: S. aureus IC50

compound | IC50
O=CN(O)C/C=C/P(=O)(O)O [Compound 3] | > 100 µM
CC(=O)N(O)C/C=C/P(=O)(OCOC(=O)C(C)(C)C)OCOC(=O)C(C)(C)C [Compound 2] | > 100 µM
O=CN(O)CCCP(=O)(O)O [FSM, fosmidomycin] | > 100 µM
CC(=O)N(O)C/C=C/P(=O)(O)O [Compound 1] | > 100 µM
CC(C)(C)C(=O)OCOP(=O)(/C=C/CN(O)C=O)OCOC(=O)C(C)(C)C [Compound 4] | > 90 µM
CC(=O)N(O)CCCP(=O)(O)O [FR-900098] | > 100 µM

Entry source: paper PMC7297381
